B1: F1*; the commonest letter at each place (parent)
chain: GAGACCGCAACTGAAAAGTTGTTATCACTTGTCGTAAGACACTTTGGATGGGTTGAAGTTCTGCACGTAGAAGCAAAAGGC

# Variants of: B1
# PROTOCOL TEXT: fraction ligated after 30 min (ligated reads / total reads); higher = more ligase activity
# MEASUREMENT PARAMETERS: with F1*sub RNA substrate (template-directed ligation), 42 °C
Assign label 1 to entries whose fraction ligated meets or exceeds 0.8; assign label 0 to the rest.

Quick check: does `GAGACCGCAACTGAAAAGTTGTTATCACTTGTCGTAAGACACGTTGGATGGGTTCAAGTTCTGCACGTAGAAGCAAAAGGC` have fraction ligated greater than or equal to 0.8?
label 0

Answer whether fraction ligated of `GAGACCGCAACTGAAAAGTTGTTGTCACTTGTCGTAAGCCACTTTGGATGGGTTGAAGTTCTGCACGTAGAAGCAAAAGGC` is greater than or equal to 0.8.
label 0

Check if fraction ligated >= 0.8 (inclusive). Item: `GAGACCGCAACTGAAAAGTTGTTATAACTTGTCGTAAGACACTTTGCATGGGTTGAAGTTCTGCACGTAGAAGCAAAAGGC`
label 0

Quick check, fraction ligated >= 0.8? `GAGACCGCAACTGAAAAGTTGTTATCACTTGTCGTATGACACTTTGGATCGGTTGAAGTTCTGCACGTAGAAGCAAAAGGC`
label 0

Hi, just wondering whether `GAGACCGCAACTGAAAAGTTGTTATCACTTGTCCTAAGACACTTTGGATGGGTTGATGTTCTGCACGTAGAAGCAAAAGGC` shows fraction ligated of 0.8 or higher.
label 0

Exam item: decide whether the reported fraction ligated for `GAGACCGCAACTGAAAAGTTGTTATCACTTGTCGTAAGACACTTTGGATGGGTTTCGGTTCTGCACGTAGAAGCAAAAGGC` is at least 0.8.
label 0

Please indicate if the recorded fraction ligated for `GAGACCGCAACTGAAAAGTTGTTATCACTTGCCGTAAGGCACTTTGGATGGGTTGAAGTTCTGCACGTAGAAGCAAAAGGC` meets or exceeds 0.8.
label 1

Quick check, fraction ligated >= 0.8? `GAGACCGCAACTGAAAAGTTGTTATCACTTGTCGTAAGACACTTTGGATGGGTAGAAGTTCTGCACGTAGAAGCAAAAGGC`
label 1

Assess whether reported fraction ligated for `GAGACCGCAACTGAAAAGTTGTTATCACTAGTCGTAAGATACTTTGGATGGGTTGAAGTTCTGCACGTAGAAGCAAAAGGC` sits at 0.8 or higher.
label 1

# bool: fraction ligated of `GAGACCGCAACTGAAAAGTTGTTATAACTTGTCGTAAGACACTTTGGAGGGGTTGAAGTTCTGCACGTAGAAGCAAAAGGC` >= 0.8
label 0

Is reported fraction ligated greater than or equal to 0.8 here: `GAGACCGCAACTGAAAAGTTGTTATCGCTTGTCGTAAGACACTTCGGATGGGTTGAAGTTCTGCACGTAGAAGCAAAAGGC`
label 0

Dear colleague, could you confirm whether `GAGACCGCAACTGAAAAGTTGTTATCACTTGTCGTAAGACACTTTGGAGGGGTTGACGTTCTGCACGTAGAAGCAAAAGGC` has fraction ligated at or above 0.8?
label 0

Item `GAGACCGCAACTGAAAAGTTGTTATCACTTGTCGTAAGACACTTTGGACGGGTTCAAGTTCTGCACGTAGAAGCAAAAGGC` with fraction ligated of 0.8 or above?
label 0

Could you please find out whether `GAGACCGCAACTGAAAAGTTGTTATCACTGGTCGTAAGACACTTGGGATGGGTTGAAGTTCTGCACGTAGAAGCAAAAGGC` has fraction ligated that meets 0.8 or exceeds it?
label 0

Given `GAGACCGCAACTGAAAAGTTGTTAACACTTGTCGTAAGACACTTTGTATGGGTTGAAGTTCTGCACGTAGAAGCAAAAGGC` , state whether its fraction ligated is at least 0.8.
label 0

Does the variant `GAGACCGCAACTGAAAAGTTGTTATCACTGCCCGTAAGGGCCTTTGGATGGGTTGAAGTTCTGCACGTAGAAGCAAAAGGC` have recorded fraction ligated that is 0.8 or more?
label 1

Please indicate if the recorded fraction ligated for `GAGACCGCAACTGAAAAGTTGTTATCACTTGTCGTAAGTCACTTTGGATGGGTTCAAGTTCTGCACGTAGAAGCAAAAGGC` meets or exceeds 0.8.
label 0

I'd appreciate it if you could say whether `GAGACCGCAACTGAAAAGTTGTGATCACTTGTAGTAAGACACTTTGGATGGGTTGAAGTTCTGCACGTAGAAGCAAAAGGC` has fraction ligated at least equal to 0.8.
label 1

Is reported fraction ligated greater than or equal to 0.8 here: `GAGACCGCAACTGAAAAGTTGTTATCACTAGTCGTAAGACACTTTGGATGGGTTGAAGTTCTGCACGTAGAAGCAAAAGGC`
label 1

Could you tell me if the measured fraction ligated of `GAGACCGCAACTGAAAAGTTGTTATCAGTTTTCGTAAGACACTTTGGATGGGTTGAAGTTCTGCACGTAGAAGCAAAAGGC` reaches 0.8 or more?
label 1

Item `GAGACCGCAACTGAAAAGTTGTTATCACGTGTCGAAAGACACTTTGGATGGGTTGAAGTTCTGCACGTAGAAGCAAAAGGC` with fraction ligated of 0.8 or above?
label 1

Does the variant `GAGACCGCAACTGAAAAGTTGTTCTCACTAGTCGTAAGACACTTTGGATGGGTTGAAGTTCTGCACGTAGAAGCAAAAGGC` have recorded fraction ligated that is 0.8 or more?
label 0

Tell me whether fraction ligated is at least 0.8 here: `GAGACCGCAACTGAAAAGTTGTTATCACTTGTTGTAAGACACTTGGGATGGGTTGAAGTTCTGCACGTAGAAGCAAAAGGC`
label 0

Check this variant for fraction ligated at or above 0.8: `GAGACCGCAACTGAAAAGTTGTTATCACTTGTCGTAAGACACTTTCGATGGGTTGATGTTCTGCACGTAGAAGCAAAAGGC`
label 0

Could you verify whether the entry `GAGACCGCAACTGAAAAGTTGTTATCACTTGTCGTAAGACACTTCAGATGGGTTGAAGTTCTGCACGTAGAAGCAAAAGGC` shows fraction ligated of no less than 0.8?
label 0

Answer whether fraction ligated of `GAGACCGCAACTGAAAAGTTGTTAACACTTGCCGTAAGACACTTTGGATGGGTTGAAGTTCTGCACGTAGAAGCAAAAGGC` is greater than or equal to 0.8.
label 0

Quick check, fraction ligated >= 0.8? `GAGACCGCAACTGAAAAGTTGTTCTTACTTGTCGTAAGACACTTTGGATGGGTTGAAGTTCTGCACGTAGAAGCAAAAGGC`
label 0

hey, is fraction ligated for this one >= 0.8? `GAGACCGCAACTGAAAAGTTGTTATCGCTTGTCGTAAAACACTTTGGATGGGTTGAAGTTCTGCACGTAGAAGCAAAAGGC`
label 1

State whether the measured fraction ligated reaches 0.8, counting equality as reaching it, for `GAGACCGCAACTGAAAAGTTGTTATCACTTGTCGTAGGACACTTTGGATGGGTTGAAGTTCTGCACGTAGAAGCAAAAGGC`
label 1

Textbook exercise: given the entry `GAGACCGCAACTGAAAAGTTGTTAACACTTGTCGTAAGACAGTTTGGATGGGTTGAAGTTCTGCACGTAGAAGCAAAAGGC` , state whether its fraction ligated is greater than or equal to 0.8.
label 0

Evaluate `GAGACCGCAACTGAAAAGTTGTTCTCACTTGTCGTAAGACGCTTTGGATGGGTTGAAGTTCTGCACGTAGAAGCAAAAGGC` : fraction ligated at minimum 0.8?
label 0

State whether the measured fraction ligated reaches 0.8, counting equality as reaching it, for `GAGACCGCAACTGAAAAGTTGTTATCACTCGTCGTAAGACACTTCGGATGGGTTGAAGTTCTGCACGTAGAAGCAAAAGGC`
label 0

Does fraction ligated meet or surpass 0.8 for `GAGACCGCAACTGAAAAGTTGTTATCACTTATCGTAAGACACTTTGGATGGGTTGAGGTTCTGCACGTAGAAGCAAAAGGC` ?
label 1

In plain terms: is recorded fraction ligated at least 0.8 for `GAGACCGCAACTGAAAAGTTGTTATCAATTGTCGTAAGACACTTTGGATCGGTTGAAGTTCTGCACGTAGAAGCAAAAGGC` ?
label 0

Given the entry `GAGACCGCAACTGAAAAGTTGTTATCACTTGTCTTAAGACACTTTGGATCGGTTGAAGTTCTGCACGTAGAAGCAAAAGGC` , answer whether its fraction ligated meets or surpasses 0.8.
label 0

Item `GAGACCGCAACTGAAAAGTTGTTATCACTTGTCGTATGACACTTTGGACGGGTTGAAGTTCTGCACGTAGAAGCAAAAGGC` with fraction ligated of 0.8 or above?
label 0

Please check the record `GAGACCGCAACTGAAAAGTTGTTATCACTTGTCGTTAGACATTTTGGATGGGTTGAAGTTCTGCACGTAGAAGCAAAAGGC` and state if its fraction ligated is at or above 0.8.
label 1

Check if fraction ligated >= 0.8 (inclusive). Item: `GAGACCGCAACTGAAAAGTTGTTATCACTTGTGGTAAGATACTTTGGATGGGTTGAAGTTCTGCACGTAGAAGCAAAAGGC`
label 1

Does the variant `GAGACCGCAACTGAAAAGTTGTTATCACTTGTCGTTAGACACTTTGCATGGGTTGAAGTTCTGCACGTAGAAGCAAAAGGC` have recorded fraction ligated that is 0.8 or more?
label 0

Determine whether this variant has fraction ligated no lower than 0.8: `GAGACCGCAACTGAAAAGTTGTTATCACTTGTCGTAAGCCACTTTGGAAGGGTTGAAGTTCTGCACGTAGAAGCAAAAGGC`
label 0

Identify whether the reported fraction ligated of the following variant is 0.8 or greater: `GAGACCGCAACTGAAAAGTTGTTGTCACTTCTCGTAAGACACTTTGGATGGGTTGAAGTTCTGCACGTAGAAGCAAAAGGC`
label 0

Is fraction ligated for `GAGACCGCAACTGAAAAGTTGTTATCACTTGTCGTTCGACACTTTGGATGGGTTGAAGTTCTGCACGTAGAAGCAAAAGGC` at or above 0.8?
label 1

Tell me whether fraction ligated is at least 0.8 here: `GAGACCGCAACTGAAAAGTTGTTATTACTTGACGTAAGACACTTTGGATGGGTTGAAGTTCTGCACGTAGAAGCAAAAGGC`
label 0

# check: fraction ligated of `GAGACCGCAACTGAAAAGTTGTTAGCACTTGTCGTAAGACACTTTTGATGGGTTGAAGTTCTGCACGTAGAAGCAAAAGGC` is greater than or equal to 0.8
label 0

Tell me whether fraction ligated is at least 0.8 here: `GAGACCGCAACTGAAAAGTTGTTACCACTTGTCGTAAGACCCTTTGGATGGGTTGAAGTTCTGCACGTAGAAGCAAAAGGC`
label 0

Does the variant `GAGACCGCAACTGAAAAGTTGTTATCACTTGTCGTAAGACACGTTGCATGGGTTGAAGTTCTGCACGTAGAAGCAAAAGGC` have recorded fraction ligated that is 0.8 or more?
label 0

Does the reported fraction ligated for `GAGACCGCAACTGAAAAGTTGTTATAACTTGTCGTAAGACACTTTGGATCGGTTGAAGTTCTGCACGTAGAAGCAAAAGGC` fall at or above the 0.8 mark?
label 0

Could you verify whether the entry `GAGACCGCAACTGAAAAGTTGTTATCACTTGTCGTAAGACACTTTGTATTGGTTGAAGTTCTGCACGTAGAAGCAAAAGGC` shows fraction ligated of no less than 0.8?
label 0

Decide: is the reported value of fraction ligated for `GAGACCGCAACTGAAAAGTTGTTATCACTTGACGTAAGACACTTTGGATGGGTTCAAGTTCTGCACGTAGAAGCAAAAGGC` equal to or greater than 0.8?
label 0

Record `GAGACCGCAACTGAAAAGTTGTTATCACTTGTCGTAAGACACTTTGGTAGGGTTGAAGTTCTGCACGTAGAAGCAAAAGGC` ; criterion: fraction ligated no lower than 0.8. Met?
label 0

Kindly determine if fraction ligated recorded for `GAGACCGCAACTGAAAAGTTGTTATCACTGCGGGTAACCGCCTTTGGATGGGTTGAAGTTCTGCACGTAGAAGCAAAAGGC` is above or exactly 0.8.
label 1

src = the supplement of paper PMC6755084
